Inhibition enzymatic activity human MTP2 on cells (IC50) by entry:
TARGET_OR_TEST_SYSTEM: T1, human MTP-2 expressed on HEK293 cells (human, UniProt Q8IU80 1-811)
T1 sequence: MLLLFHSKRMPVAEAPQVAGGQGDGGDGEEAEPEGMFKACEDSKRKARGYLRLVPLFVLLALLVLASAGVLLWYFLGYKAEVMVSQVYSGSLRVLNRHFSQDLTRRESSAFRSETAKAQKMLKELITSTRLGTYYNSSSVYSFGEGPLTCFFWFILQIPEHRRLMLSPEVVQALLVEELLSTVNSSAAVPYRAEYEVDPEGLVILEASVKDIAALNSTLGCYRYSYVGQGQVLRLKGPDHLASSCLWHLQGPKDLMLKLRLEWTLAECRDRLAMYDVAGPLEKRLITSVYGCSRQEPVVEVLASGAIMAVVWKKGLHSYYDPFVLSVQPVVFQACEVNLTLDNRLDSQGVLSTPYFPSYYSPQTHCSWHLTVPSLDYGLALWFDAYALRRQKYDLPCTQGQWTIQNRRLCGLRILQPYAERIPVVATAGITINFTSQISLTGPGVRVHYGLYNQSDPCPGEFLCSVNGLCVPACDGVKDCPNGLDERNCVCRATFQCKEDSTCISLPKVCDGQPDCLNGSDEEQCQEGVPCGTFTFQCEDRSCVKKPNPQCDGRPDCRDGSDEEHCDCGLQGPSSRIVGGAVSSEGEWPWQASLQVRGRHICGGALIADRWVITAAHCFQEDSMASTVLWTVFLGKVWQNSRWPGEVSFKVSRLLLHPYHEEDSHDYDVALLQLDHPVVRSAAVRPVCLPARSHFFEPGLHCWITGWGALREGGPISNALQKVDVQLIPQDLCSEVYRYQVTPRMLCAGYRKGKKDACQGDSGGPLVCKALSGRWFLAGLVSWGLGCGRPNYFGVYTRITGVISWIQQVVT
TEST_PROTOCOL: cell-based or functional assay
ENDPOINT: Inhibition enzymatic activity human MTP2 on cells (IC50) (nM)

[
  {
    "BINDER": "NORI-017 (antibody, human IgG4 S228P, lambda, V domains shown) VH: QVHLVESGGAVVQPGRSLRLSCAASGFTFSNFDMHWVRQTPGKGLEWVTIIRYDETNIYYTESVKGRFTTSRDNSKNTLYLQMNSLRVEDTAVYYCARGWTGSYVFDYWGQGALVTVSS VL: QSVLTQPPSVSEAPRQRVTISCSGGSSNIGNNAVNWYQQVPGKAPKLLIHYDDLLPSGVSDRFSGSKSGTSASLAISGLQSEDEADYYCAAWDDSLNGVVFGGGTKLTVLG",
    "ASSAY_VALUE": 0.198
  },
  {
    "BINDER": "NORI-008 (antibody, human IgG4 S228P, kappa, V domains shown, human IgG4PE, kappa, in the in vitro assays; a mouse IgG1 format was used in one in vivo study only; also called NORI-008 hulgG4PE; NORI-008 IgG) VH: QVQLQESGPGLVKPSETLSLTCSVSGGSVSSGRYYWTWIRQPPGKGLEWIGYISNSGNTNYNPSLKSRVTISLDTSKKQFSLSLSAVTAADTAVYYCARGFIYDYWFDPWGQGSLVTVSS VL: DSQMTQSPSSLSASVGDRVTITCQASQDIDNYLNWYQQRPGKAPKLLIYDASKLETGVPSRFSGSGSGTDFTFTISSLQPEDFATYYCQQYGNLPITFGQGTRLDIKR",
    "ASSAY_VALUE": 0.0839
  },
  {
    "BINDER": "NORI-031 (antibody, human IgG4 S228P, lambda, V domains shown) VH: QLQLQESGPGLVKPSETLSLTCTVSGGAISSSNYFWGWIRQSPGKGLEWIGSMYYTGITYYNPSLKSRVTISVDTSKNQLSLKVNSVTAADTAVYYCARQDGFRTGWFDPWGQGTLVTVSS VL: SYELTQPPSVSVSPGQTATLTCSGDKLGDNYVCWFQQKPGQSPLLVMYQDTKRPSGIPERFSGSNSGNTATLTISGTQALDEADYYCQAWDSRTVVFGGGTKLTVLG",
    "ASSAY_VALUE": 3.51
  },
  {
    "BINDER": "NORI-012 (antibody, human IgG4 S228P, lambda, V domains shown, human IgG4PE, lambda) VH: EVQLVESGGGLVQPGRSLRLSCAASGFTFDDHVMYWVRQAPGKGLEWVSGISWNSDTIGYADAVKGRFTISRDNAKNVLYLHMNSLRPEDTALYYCAREKDGDFYYNYFVMDVWGQGTTVTVSP VL: QSALTQPPSASGSPGQSVTISCTGTSSDVGFYNFVSWYQQHPDKAPKVMIYEVSKRPSGVPDRFSGSKSGNTASLTVSGLQAEDEADYYCSSYAGSNKVVFGGGTKLTVLG",
    "ASSAY_VALUE": 4.26
  },
  {
    "BINDER": "NORI-020 (antibody, human IgG4 S228P, lambda, V domains shown) VH: QLQLQESGPGLVKPAETLSLMCTVSGDSISSSHYFWGWIRQPPGKGLEWIGSMYYSGSTYYNPSLKSRVTISVDTSNNQFSLKLRSVTAADTAVYYCVRHNNWGLDNYFDYWGQGTLVTVSS VL: SYELTQPPSVSVSPGQTARITCSADALPDQYAYWYQQKPGQAPLLVIYKDSERPSGIPERFSGSSSGTIVTLTIRGVQAEDEADYYCQSADSSGSYAVFGGGTKLTVLG",
    "ASSAY_VALUE": 0.146
  },
  {
    "BINDER": "NORI-029 (antibody, human IgG4 S228P, lambda, V domains shown) VH: EVQLVESGGGLVKPGRSLRLSCTASGFTFGDYVMSWFRQAPGKGLEWVGFIRSKPYSETTEYAASVRGRFTISRDDSKSIAYLQMNSLKTEDTAVYYCTRALYDLLTGPWMGGDYFYALDVWGQGTTVTVSS VL: QSALTQPPSASGSPGQSVTISCTGTSSDVGDYNYVSWYQQHPGKAPKLMIYEVSKRPSGVPDRFSGSKSGNTASLTVSGLQAEDEADYYCKSYAGSNNLVFGGGTKLTVLG",
    "ASSAY_VALUE": 0.243
  },
  {
    "BINDER": "NORI-023 (antibody, human IgG4 S228P, lambda, V domains shown) VH: QVQLVESGGGLVKPGGSLRLSCAASGFTFSDYYMSWIRQAPGKGLEWVSYISSSGGNRYYADSVKGRFTISRDNAKNSLYLQMNSLRAEDTAVYYCARGGLRYFDWADFWGQGTLVTVSS VL: QSVLTQPPSVSAAPGQKVTISCSGSSSNIGNNYVSWYQQLPGTAPKLLIYDNNKRPSGIPDRFSGSKSGTSATLGIPELQTGDEADYYCGTWDNSLSAGVFGGGTKLTVLG",
    "ASSAY_VALUE": 13.2
  },
  {
    "BINDER": "NORI-021 (antibody, human IgG4 S228P, lambda, V domains shown) VH: QVQLVESGGGLVKPGGSLRLSCAAFGFTFSDYYMGWIRQAPGKGLEWVSHISSSGRTRYYADSVKGRFTISRDNAKNALYLQMDSLRAEDTAVFYCARAQLRYFDWLDYWGQGTLVTVSS VL: QSVLTQPPSVSAAPGQKVTISCSGSGSNIGNNYVSWYQQVPGTAPKLLIYDNNKRPSGIPDRFSGSKSGTSATLGITGLQTGDEADYYCGTWDSSLSAGVFGGGTKLTVLG",
    "ASSAY_VALUE": 8.21
  },
  {
    "BINDER": "NORI-022 (antibody, human IgG4 S228P, lambda, V domains shown) VH: EVRLVESGGGLVQSGGSLRLSCAASGFTFSTYTMNWVRQAPGKGLEWVSYISIRNSIIDYADSVKGRFTISRDNAKNSLYLQMNSLRDEDTAVYYCAREEFCGTTSCYFLDYWGQGILVTVSS VL: QSVLTQPPSVSGAPGQRVTISCTGSSSNIGAGYDVHWYQQLPGTAPKLLIYGNSNRPSGVPDRFSGSKSGTSASLAITGLQAEDEADYYCQSYDSSLSGYVFGTGTKVTVLG",
    "ASSAY_VALUE": 0.765
  },
  {
    "BINDER": "NORI-009 (antibody, human IgG4 S228P, lambda, V domains shown, human IgG4PE, lambda) VH: EVQLVESGGGLVQPGRSLRLSCAASGFTFNDHVIYWVRQVPGKGLEWVSTISWNSDTIAYADSVKGRFTISRDNAKNALYLQMNSLRTEDTALYYCAREKDGDFYYDYFAMDVWGQGTTVTVSS VL: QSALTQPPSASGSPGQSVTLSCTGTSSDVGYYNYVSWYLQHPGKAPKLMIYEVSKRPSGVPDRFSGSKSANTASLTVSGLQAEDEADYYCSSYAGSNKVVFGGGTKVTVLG",
    "ASSAY_VALUE": 5.68
  }
]
